- Tested on: U2OS
- assay.notes: Incucyte cell viability with U2OS; note: filed as whole numbers so only -1 and 0 and 1 occur
- Type: toxicity, cell-based
- condition.summary: human, 6 h, 10 µM, compound concentration 10 uM, replicate number 2, timepoint 6 hours
reported.metric: Growth Rate
Output: the number by itself.

These recorded examples may help you get a feel for the data.
{"columns": ["compound", "Growth Rate"],
 "data": [
  ["CC(C)N1CCC(C)(C)c2cc(C#Cc3ccc(C(=O)O)cc3)ccc21", 0],
  ["CCOC(=O)c1cc(C#N)c(N2CCC(C(=O)NS(=O)(=O)Cc3ccccc3)CC2)nc1C", 0],
  ["C[C@@H](NCCc1ccc(O)cc1)[C@@H](O)c1ccc(O)cc1.Cl (relative stereo)", 1]
]}

Exam item: Report its Growth Rate with U2OS as the test system: CN1C(=O)[C@@H](N2CCc3c(nn(Cc4ccccc4)c3Br)C2=O)COc2ccccc21
Marked response: 1

Exam item: GET Growth Rate where system = U2OS and item = C[C@H](CO)Nc1nc(SCc2cccc(Cl)c2F)nc2[nH]c(=O)sc12
Marked response: 0

Exam item: Determine reported Growth Rate for CS(=O)(=O)c1cc(C2(NC(=O)c3cncc4c3cnn4-c3ccc(F)cc3)CC2)ccn1 ; test system: U2OS.
Marked response: 1

Exam item: Jot down Growth Rate (U2OS) of Oc1ccc(-c2nc3cc(O)cc(Br)c3o2)cc1 .
Marked response: 0

Exam item: Answer with Growth Rate of CN1CC(=O)N=C1NC(=O)Nc1cccc(Cl)c1 [FENOBAM ANHYDROUS] measured for U2OS.
Marked response: 1

Exam item: Would you please give the reported Growth Rate of Cc1c(Oc2ccc(F)cc2)c(OC(C)C)nn1-c1ccc(C2CC2)cn1 with U2OS?
Marked response: 0
